target_under_test: human PPARα (166–467aa) ligand binding domain (Homo sapiens)
Construct: human PPARα (166–467aa); expressed in transfected cells; host or cells: COS-7
method: PPAR transfection (Gal4-LBD luciferase reporter) assay, hPPARα
Type: cell-based
condition_description: transfected COS-7 cells, 16 hours, luciferase activity; read-out: hPPAR; EC50 α (agonist activity)
pEC50: −log10 of the molar value.
Recorded pEC50 for the following molecules

molecule | pEC50
C[C@@H](Oc1cccc(CN(CCCOc2ccccc2)c2nc3ccccc3o2)c1)C(=O)O | 7.96
Cc1ccc2oc(N(CCCOc3ccc(F)cc3)Cc3cccc(OC(C)C(=O)O)c3)nc2c1 (centres unmarked) | 8.52
CC(Oc1cccc(CCN(CCOc2ccc(F)cc2)c2nc3cc(Cl)ccc3o2)c1)C(=O)O (centres unmarked) | 7.30
CCC(Oc1cccc(CN(CCOc2ccc(F)cc2)c2nc3ccccc3o2)c1)C(=O)O (centres unmarked) | 8.00
CCC(Oc1cccc(CCN(CCOc2ccc(OC)cc2)c2nc3cc(F)ccc3o2)c1)C(=O)O (centres unmarked) | 8.00
CC(Oc1cccc(CCN(CCOc2ccccc2)c2nc3cc(F)ccc3o2)c1)C(=O)O (centres unmarked) | 7.15
CC(C)(Oc1ccc(CCCN(CCc2ccccc2)c2nc3ccccc3s2)cc1)C(=O)O | 7.00
CCC(Oc1cccc(CN(CCCOc2ccc(F)cc2)c2nc3ccccc3o2)c1)C(=O)O (centres unmarked) | 8.00

---

target_under_test: human PPARγ (182–505aa) ligand binding domain (Homo sapiens)
Construct: γ(182–505aa); expressed in transfected cells; host or cells: COS-7
Sequence (P37231 182-505): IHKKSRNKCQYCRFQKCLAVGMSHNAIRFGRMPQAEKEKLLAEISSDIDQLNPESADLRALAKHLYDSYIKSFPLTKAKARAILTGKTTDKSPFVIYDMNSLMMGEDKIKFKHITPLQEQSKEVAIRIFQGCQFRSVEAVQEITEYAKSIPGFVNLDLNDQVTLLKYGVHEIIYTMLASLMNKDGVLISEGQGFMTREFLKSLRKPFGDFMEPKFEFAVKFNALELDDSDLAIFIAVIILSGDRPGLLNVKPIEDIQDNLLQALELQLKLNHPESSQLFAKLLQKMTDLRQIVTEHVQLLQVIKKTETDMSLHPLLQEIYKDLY
method: PPAR transfection (Gal4-LBD luciferase reporter) assay, hPPARγ
Type: cell-based
condition_description: read-out: hPPAR; EC50 γ (agonist activity)

compound | EC50 / nM
CCC(Oc1cccc(CN(CCCOc2ccccc2)c2nc3cc(F)ccc3o2)c1)C(=O)O (stereo not shown) | 1000

---

target_under_test: human PPARα (166–467aa) ligand binding domain (Homo sapiens)
Construct: human PPARα (166–467aa); expressed in transfected cells; host or cells: COS-7
Sequence (Q07869 166-467): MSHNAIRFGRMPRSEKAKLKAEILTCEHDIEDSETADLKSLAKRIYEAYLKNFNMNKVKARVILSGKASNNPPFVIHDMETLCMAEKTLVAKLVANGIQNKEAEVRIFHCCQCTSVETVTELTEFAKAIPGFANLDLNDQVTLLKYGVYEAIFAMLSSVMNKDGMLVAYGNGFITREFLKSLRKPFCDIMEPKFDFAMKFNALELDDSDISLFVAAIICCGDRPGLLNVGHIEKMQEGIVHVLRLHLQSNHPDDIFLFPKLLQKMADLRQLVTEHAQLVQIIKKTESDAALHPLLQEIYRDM
method: PPAR transfection (Gal4-LBD luciferase reporter) assay, hPPARα
Type: cell-based
condition_description: transfected COS-7 cells, 16 hours, luciferase activity; read-out: hPPAR; EC50 α (agonist activity)
Overview of recorded log10(EC50) for various compounds
experimental_readout: log10(EC50) (log10 of the value in nM)

compound | log10(EC50)
CCC(Oc1cccc(CCN(CCOc2ccc(OC)cc2)c2nc3cc(Cl)ccc3o2)c1)C(=O)O (stereo not shown) [Example 47] | 1.60
CCC(Oc1cccc(CN(CCOc2ccc(OS(C)(=O)=O)cc2)c2nc3ccccc3o2)c1)C(=O)O (stereo not shown) [Example 231] | 1.11
Cc1ccc2oc(N(CCCOc3ccccc3)Cc3cccc(OC(C)C(=O)O)c3)nc2c1 (stereo not shown) [Example 155] | 1.04
COc1ccc(OCCCN(Cc2cccc(OC(C)C(=O)O)c2)c2nc3ccccc3s2)cc1 (stereo not shown) [Example 96] | 0.00
CC(Oc1cccc(CN(CCCOc2ccc(F)cc2)c2nc3cc4c(cc3o2)OCO4)c1)C(=O)O (stereo not shown) [Example 169] | 0.60
CCC(Oc1cccc(CCN(CCCOc2ccc(OC)cc2)c2nc3cc(F)ccc3o2)c1)C(=O)O (stereo not shown) [Example 49] | 1.30
COc1ccc(OCCCN(Cc2cccc(OC(C)C(=O)O)c2)c2nc3cc(Cl)ccc3o2)cc1 (stereo not shown) [Example 204] | 1.00
CCC(Oc1cccc(CN(CCOc2ccccc2)c2nc3ccccc3o2)c1)C(=O)O (stereo not shown) [Example 24] | 1.48
COc1ccc2oc(N(CCOc3ccccc3)CCc3cccc(OC(C)C(=O)O)c3)nc2c1 (stereo not shown) [Example 44] | 1.90
CCC(Oc1cccc(CCN(CCCOc2ccc(Cl)cc2)c2nc3cc(OC)ccc3o2)c1)C(=O)O (stereo not shown) [Example 52] | 1.00
CC(C)(Oc1cccc(CCN(CCOc2ccccc2)c2nc3ccccc3o2)c1)C(=O)O [Example 78] | 1.48
CC(C)(Oc1ccc(CCCN(CCc2ccccc2)C(=O)c2nc3ccccc3s2)cc1)C(=O)O [Compound B, reference compound] | 2.08
CCC(Oc1cccc(CN(CCOc2ccc(Cl)cc2)c2nc3ccccc3o2)c1)C(=O)O (stereo not shown) [Example 2] | 1.00

---

Catalogue of compounds with associated EC50
target_under_test: human PPARδ (137–441aa) ligand binding domain (Homo sapiens, UniProt Q03181)
Construct: δ (137–441aa); expressed in transfected cells; host or cells: COS-7
Sequence (Q03181 137-441): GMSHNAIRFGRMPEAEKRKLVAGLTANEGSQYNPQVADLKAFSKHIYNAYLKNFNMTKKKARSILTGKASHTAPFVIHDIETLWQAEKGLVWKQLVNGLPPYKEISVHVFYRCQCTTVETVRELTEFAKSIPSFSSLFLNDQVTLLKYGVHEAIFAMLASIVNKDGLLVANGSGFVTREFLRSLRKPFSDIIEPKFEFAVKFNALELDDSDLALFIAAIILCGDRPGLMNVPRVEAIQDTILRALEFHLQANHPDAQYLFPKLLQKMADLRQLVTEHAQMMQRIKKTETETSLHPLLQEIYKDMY
method: PPAR transfection (Gal4-LBD luciferase reporter) assay, hPPARδ
Assay type: cell-based
condition_description: transfected COS-7 cells, 16 hours, luciferase activity; read-out: hPPAR; EC50 δ (agonist activity)

compound | EC50 / nM
CC(Oc1cccc(CCN(CCOc2ccc(F)cc2)c2nc3cc(Cl)ccc3o2)c1)C(=O)O (stereo not shown) | 1600
Cc1ccc2oc(N(CCCOc3ccccc3)Cc3cccc(OC(C)C(=O)O)c3)nc2c1 (stereo not shown) | 1800
CCC(Oc1cccc(CCN(CCCOc2ccc(Cl)cc2)c2nc3ccccc3o2)c1)C(=O)O (stereo not shown) | 1900
COc1ccc(OCCCN(Cc2cccc(OC(C)C(=O)O)c2)c2nc3ccccc3o2)cc1 (stereo not shown) | 2000

---

target_under_test: human PPARδ (137–441aa) ligand binding domain (Homo sapiens, UniProt Q03181)
Construct: δ (137–441aa); expressed in transfected cells; host or cells: COS-7
method: PPAR transfection (Gal4-LBD luciferase reporter) assay, hPPARδ
Type: cell-based
condition_description: transfected COS-7 cells, 16 hours, luciferase activity; read-out: hPPAR; EC50 δ (agonist activity)
Below: a set of entries, each annotated with reported EC50.

compound | target_under_test | u | qualifier_symbol | EC50
CCC(Oc1cccc(CCN(CCCOc2ccc(F)cc2)c2nc3cc(OC)ccc3o2)c1)C(=O)O (stereo not shown) [Example 51] | human PPARδ (137–441aa) ligand binding domain (Homo sapiens, UniProt Q03181) | nM | = | 1400
COc1ccc2oc(N(CCOc3ccc(F)cc3)CCc3cccc(OC(C)C(=O)O)c3)nc2c1 (stereo not shown) [Example 37] | human PPARδ (137–441aa) ligand binding domain (Homo sapiens, UniProt Q03181) | nM | = | 1500
CCC(Oc1cccc(CN(CCCOc2ccc(F)cc2)c2nc3ccccc3o2)c1)C(=O)O (stereo not shown) [Example 1] | human PPARδ (137–441aa) ligand binding domain (Homo sapiens, UniProt Q03181) | nM | = | 1600
CCC(Oc1cccc(CCN(CCCOc2ccc(F)cc2)c2nc3ccccc3o2)c1)C(=O)O (stereo not shown) [Example 50] | human PPARδ (137–441aa) ligand binding domain (Homo sapiens, UniProt Q03181) | nM | = | 1400
CC(Oc1cccc(CN(CCCOc2ccc3c(c2)OCO3)c2nc3ccccc3o2)c1)C(=O)O (stereo not shown) [Example 157] | human PPARδ (137–441aa) ligand binding domain (Homo sapiens, UniProt Q03181) | nM | = | 1300
COc1ccc(OCCCN(Cc2cccc(OC(C)C(=O)O)c2)c2nc3cc(Cl)ccc3o2)cc1 (stereo not shown) [Example 204] | human PPARδ (137–441aa) ligand binding domain (Homo sapiens, UniProt Q03181) | nM | = | 1800
CCC(Oc1cccc(CN(CCCOc2ccccc2)c2nc3cc4c(cc3o2)OCO4)c1)C(=O)O (stereo not shown) [Example 158] | human PPARδ (137–441aa) ligand binding domain (Homo sapiens, UniProt Q03181) | nM | = | 1100
CC(C)(Oc1cccc(CCN(CCOc2ccccc2)c2nc3ccccc3o2)c1)C(=O)O [Example 78] | human PPARδ (137–441aa) ligand binding domain (Homo sapiens, UniProt Q03181) | nM | > | 100000
CCC(Oc1cccc(CN(CCOc2ccc(F)cc2)c2nc3ccc(F)cc3o2)c1)C(=O)O (stereo not shown) [Example 183] | human PPARδ (137–441aa) ligand binding domain (Homo sapiens, UniProt Q03181) | nM | = | 2400
CCC(Oc1cccc(CCN(CCCOc2ccc(Cl)cc2)c2nc3cc(OC)ccc3o2)c1)C(=O)O (stereo not shown) [Example 52] | human PPARδ (137–441aa) ligand binding domain (Homo sapiens, UniProt Q03181) | nM | = | 400
CC(C)(Oc1ccc(CCCN(CCc2ccccc2)C(=O)c2nc3ccccc3s2)cc1)C(=O)O [Compound B, reference compound] | human PPARδ (137–441aa) ligand binding domain (Homo sapiens, UniProt Q03181) | nM | = | 900
CCC(Oc1cccc(CCN(CCOc2ccccc2)c2nc3ccccc3o2)c1)C(=O)O (stereo not shown) [Example 41] | human PPARδ (137–441aa) ligand binding domain (Homo sapiens, UniProt Q03181) | nM | > | 50000
O=C(O)COc1cccc(CN(CCCOc2ccccc2)c2nc3ccccc3o2)c1 [Example 12] | human PPARδ (137–441aa) ligand binding domain (Homo sapiens, UniProt Q03181) | nM | > | 100000
CC(Oc1cccc(CCN(CCOc2ccccc2)c2nc3cc(F)ccc3o2)c1)C(=O)O (stereo not shown) [Example 43] | human PPARδ (137–441aa) ligand binding domain (Homo sapiens, UniProt Q03181) | nM | = | 5300
C[C@@H](Oc1cccc(CN(CCCOc2ccccc2)c2nc3ccccc3o2)c1)C(=O)O [Example 88] | human PPARδ (137–441aa) ligand binding domain (Homo sapiens, UniProt Q03181) | nM | = | 3700
CC(Oc1cccc(CN(CCCC(=O)c2ccccc2)c2nc3ccccc3o2)c1)C(=O)O (stereo not shown) [Example 93] | human PPARδ (137–441aa) ligand binding domain (Homo sapiens, UniProt Q03181) | nM | = | 5100
